Catalogue of pEC50 values
# testedOn: G-protein coupled receptor 183 (Mus musculus, UniProt Q3U6B2)
# Sequence (Q3U6B2 whole entry): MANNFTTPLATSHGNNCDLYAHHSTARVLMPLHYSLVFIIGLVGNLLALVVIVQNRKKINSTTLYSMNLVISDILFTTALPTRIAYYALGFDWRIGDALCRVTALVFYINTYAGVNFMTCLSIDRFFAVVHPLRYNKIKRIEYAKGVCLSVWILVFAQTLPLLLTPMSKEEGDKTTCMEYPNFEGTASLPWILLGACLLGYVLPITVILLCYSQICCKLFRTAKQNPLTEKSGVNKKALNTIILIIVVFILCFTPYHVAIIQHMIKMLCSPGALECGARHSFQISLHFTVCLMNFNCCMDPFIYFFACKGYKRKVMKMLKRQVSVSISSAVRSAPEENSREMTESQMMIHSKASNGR
# protocol: Agonist activity at Go2-q-coupled mouse EBI2 expressed in COS7 cell membranes assessed as stimulation of [35S]GTPgammaS binding preincubated for 20 mins followed by [35S]GTPgammaS addition and measured after 1 hr by scintillation counting analysis
pEC50: −log10 of the molar value.
assayEndpoint: pEC50

chemSmiles | observedValue
C[C@H](CCCC(C)(C)O)[C@H]1CC[C@H]2[C@H]3[C@H](CC[C@]12C)[C@@]1(C)CC[C@H](O)CC1=C[C@]3(O)C(F)(F)F | 8.79
C[C@H](CCCC(C)(C)O)[C@H]1CC[C@H]2[C@@H]3[C@H](O)C=C4C[C@@H](O)CC[C@]4(C)[C@H]3CC[C@]12C | 9.15
C[C@H](CCCC(C)(C)O)[C@H]1CC[C@H]2[C@H]3[C@H](CC[C@]12C)[C@@]1(C)CC[C@H](O)CC1=C[C@@]3(O)C(F)(F)F | 7.84
